Numbers sourced from patent US12252534.

TARGET ENTITY: T1, human CD3 on human T cells (Jurkat) (human, UniProt P07766 23-207; P04234 22-171; P09693 23-182)
T1 construct: whole, on cells; also called huCD3+; cell surface CD3 on human (Jurkat) T cells
T1 sequence (P07766 23-207, chain 1 of 3): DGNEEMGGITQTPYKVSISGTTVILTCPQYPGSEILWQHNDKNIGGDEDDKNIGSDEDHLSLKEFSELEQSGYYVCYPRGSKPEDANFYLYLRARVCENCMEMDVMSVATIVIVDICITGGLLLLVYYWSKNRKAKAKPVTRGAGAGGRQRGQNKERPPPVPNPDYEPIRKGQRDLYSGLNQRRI
T1 sequence (P04234 22-171, chain 2 of 3): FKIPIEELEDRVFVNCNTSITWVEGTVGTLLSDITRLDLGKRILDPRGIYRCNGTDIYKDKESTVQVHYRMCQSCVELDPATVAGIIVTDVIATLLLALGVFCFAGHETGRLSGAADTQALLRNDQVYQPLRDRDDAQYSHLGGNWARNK
T1 sequence (P09693 23-182, chain 3 of 3): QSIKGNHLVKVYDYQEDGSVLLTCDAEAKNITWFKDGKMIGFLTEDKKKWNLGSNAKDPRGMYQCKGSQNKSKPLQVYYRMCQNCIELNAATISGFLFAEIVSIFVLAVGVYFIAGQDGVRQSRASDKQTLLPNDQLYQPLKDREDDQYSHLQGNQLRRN
PROTOCOL: flow cytometry, Jurkat cells, 200 nM antibody
READOUT: MFI

HuL3H2 (Fab, V domains shown, Humanized Fab expressed in Expi293F; also called VL3 + VH2 humanized Fab) VH: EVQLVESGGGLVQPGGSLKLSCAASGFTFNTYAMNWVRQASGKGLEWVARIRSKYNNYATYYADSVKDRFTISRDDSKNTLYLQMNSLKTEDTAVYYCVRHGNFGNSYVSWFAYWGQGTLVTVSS VL: QAVVTQEPSLTVSPGGTVTLTCGSSTGAVTTSNYANWVQQKPGQAFRGLIGGTNKRAPWTPARFSGSLLGGKAALTISGAQPEDEAEYYCALWYSNLWVFGGGTKLTVL
643

Using the record for HuL4H2 (Fab, V domains shown, Humanized Fab expressed in Expi293F; also called VL4 + VH2 humanized Fab) VH: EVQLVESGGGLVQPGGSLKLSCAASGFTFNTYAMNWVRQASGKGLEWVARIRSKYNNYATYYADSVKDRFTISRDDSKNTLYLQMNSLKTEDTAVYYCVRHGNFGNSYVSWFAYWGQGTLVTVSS VL: QAVVTQEPSLTVSPGGTVTLTCGSSTGAVTTSNYANWVQQKPGQAFRGLIYGTNKRAPWTPARFSGSLLGDKAALTISGAQPEDEAEYYCALWYSNLWVFGGGTKLTVL , state its measured MFI.
620

Using the record for HuL6H2 (Fab, V domains shown, Humanized Fab expressed in Expi293F; also called VL6 + VH2 humanized Fab) VH: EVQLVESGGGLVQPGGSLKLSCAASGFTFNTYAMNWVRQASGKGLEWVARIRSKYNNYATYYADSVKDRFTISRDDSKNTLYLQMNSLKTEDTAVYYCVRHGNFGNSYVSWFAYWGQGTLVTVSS VL: QAVVTQEPSLTVSPGGTVTLTCRSSTGAVTTSNYANWFQQKPDHLPRTLIYGTNKRAPGTPARFSGSLLGDKAALTISGAQPEDEAEYYCALWYSNLWVFGGGTKLTVL , state its measured MFI.
835
